EXPERIMENTAL TARGET: mouse BLyS protein (mouse, UniProt Q9WU72 69-309)
Sequence (Q9WU72 69-309): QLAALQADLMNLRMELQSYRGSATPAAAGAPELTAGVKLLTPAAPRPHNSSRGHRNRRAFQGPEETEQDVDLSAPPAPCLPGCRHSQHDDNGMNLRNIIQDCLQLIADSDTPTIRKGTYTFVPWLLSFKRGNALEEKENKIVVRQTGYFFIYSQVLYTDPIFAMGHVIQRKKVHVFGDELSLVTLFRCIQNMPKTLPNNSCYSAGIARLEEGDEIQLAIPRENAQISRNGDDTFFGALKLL
TEST: cell-based or functional assay
ASSAY ENDPOINT: mouse B lymphocyte proliferation (OD450 nm), antibody 0.00128 nM
Report as a plain number; the unit OD450 nm is understood.

Before answering, review these 2 worked examples.
20D1B6E9E5 (antibody, V domains shown, Mouse hybridoma monoclonal antibody purified on Protein G) VH: EVQLQQSVAELVRPGASVKLSCTASDFNIKNTYIHWVKQRPEQGLEWIGRIDPVNGNTKYAPKFQDKATIIVDTYSNTAYLQLSSLASEDTAVYYCARWPITTIVATDWYFDVWGTGTTVTVSS VL: DVLMTQTQLALPVRLGEQASISCRSSQSIVNSNGNTYLEWYLQKPGQSPKLLIYKVSNRFSGVPDRFSGSGSGTDFTLKISRVEAEDLGVYYCFQGSHVPWTFGGGTKLEIK    2170
2-1G11 (antibody, V domains shown, From a human naive scFv phage library; also called human BLyS antibody 2-1G11) VH: EVQLVESRGGVVQPGRSLRLSCAASGFTFSSYGMHWVRQAPGKGLEWVAVISYDGSNKYYADSVKGRFTISRDNSKNTLYLQMNSLRAEDAAVYYCARDRVDILTGYSIYGMDVWGQGTTVTVSS VL: EIVMTQSPATLSLSPGERATLSCRASQSVSSYLAWYQQKPGQAPRLLIYDASKRATGIPARFSGSGSGTDFTLTISSLEPEDFAVYYCQQRSNWPLTFGGGTKVEIK    2560

For the next question, use this binder.
Which mouse B lymphocyte proliferation (OD450 nm), antibody 0.00128 nM value belongs to 35E6F7C3 (antibody, V domains shown, Mouse hybridoma monoclonal antibody purified on Protein G) VH: EVQLQQSGAELVKPGASVKLSCTAAGFNIQDTYIHWVKQRPEQGLEWIGRIDPANANTVYDPKFQGKATITADTSSNTAYLQVSSLTSEDTAVYYCASPVITAGFAYWGQGTLVTVSA VL: QIVLTQSPAIMSASPGEKVTMTCGASSSVNYVHWYQQKSGTSPKRWIYDTSKLASGVPARFSGSGSGTSYSLTISSMEAEDAATYYCQQWTRSPLTFGAGTKVELK ?
2340
